Some compounds, each annotated with its measured MIC.
system: Salmonella typhi; assay: Antimicrobial activity against Salmonella typhi ATCC 23564 after 24 hrs by broth micro serial dilution method; assay type: functional, Salmonella enterica subsp. enterica serovar Typhi; conditions: Salmonella enterica, ATCC 23564, 24 h

Study these solved cases before continuing.
[
  {
    "Smiles string": "COc1cc(/C=C/c2noc(/C=C/c3ccc(O)c(OC)c3)c2/N=N/c2ccc(S(N)(=O)=O)cc2)ccc1O",
    "MIC": "> 80 µM"
  },
  {
    "Smiles string": "COc1cc(/C=C/c2nn(-c3ccccc3)c(/C=C/c3ccc(O)c(OC)c3)c2/N=N/c2ccc(S(=O)(=O)Nc3nc(C)cc(C)n3)cc2)ccc1O",
    "MIC": "> 80 µM"
  },
  {
    "Smiles string": "Cc1cc(C)nc(NS(=O)(=O)c2ccc(N)cc2)n1",
    "MIC": "> 160 µM"
  }
]

Qu. Fill in reported MIC for this entry: `COc1cc(/C=C/C(=O)C(/N=N/c2ccc(S(N)(=O)=O)cc2)=C(O)/C=C/c2ccc(O)c(OC)c2)ccc1O`
Ans. > 80 µM
